Hello, the source for this data is patent US20260258115A1, in case you need it.

- tested-system: RSV F on RSV-A2 virus (Respiratory syncytial virus, RSV-A2, UniProt P03420 26-574)
- method-description: cell-based or functional assay
Recorded Neutralization IC50 (RSV subtype A) for the following binders
measurement-kind: Neutralization IC50 (RSV subtype A)

INSERT INTO measurements (binder, measurement_kind, experimental_result) VALUES
  ('ADI-41609 (antibody, V domains shown) VH: QVQLVESGAEVKKPGASVKVSCKASGYSFTSYYMHWVRQAPGQGLEWMGVISTNGGTASYSQNFRGRVTLTRDTSTSTAYMELSSLTSEDTAVYYCVREGYCNGGSCSYFDSWGQGTLVTVSS VL: QSVLTQPPSVSGAPGQRVSISCTGSSSNIGAGYDVHWYQQLPGTAPKVLIYGNNYRPSGVPDRFSGSKSGTSASLAITGLQTEDEADYYCQSYDSRLSVVFGGGTKLTVL', 'Neutralization IC50 (RSV subtype A)', '> 25 mg/L'),
  ('ADI-41804 (antibody, V domains shown) VH: QVQLQQWGAGLLKPSETLSLTCSVLGGSFSGYYWTWIRQPPGKGLEWIGEITHDGSSNYNPSLNSRVTISVDTSNYQFSLKMRSVTAADTAVYYCARSPDLTIFGGLYFYYGISVWGQGTTVTVSS VL: DIQMTQSPSSLSASMGDRVTITCRASQDISNYLAWYQQKPGKVPNLLIYAASTLQGGVPSRFSGSGSGTDFTLTISSLQPEDVAIYYCQKYKSAPRTFGQGTKVEIK', 'Neutralization IC50 (RSV subtype A)', '> 25 mg/L'),
  ('ADI-41644 (antibody, V domains shown, also called Ab 887; Antibody Number 887) VH: QVQLQQWGPGLVKPSETLSLSCAVSGGSLRGHFWSWIRQPPGKGLEWIGEINHGGRTNFNPSLKSRLTISEDSSKNQFSLKLSSVTAADTAVYYCARRWGYDSSGYYFFDYWGQGTLVTVSS VL: EIQMTQSPATLSVSPGERATLSCRASQTLGFNLAWYQQKPGQSPRLLIYGASTRATGIPARFSGSGAGTEFTLTISSLQSEDFAVYFCQQYSNYYTFGQGTKVEIK', 'Neutralization IC50 (RSV subtype A)', '> 25 mg/L'),
  ('ADI-41571 (antibody, V domains shown) VH: EVQLLESGGGLVKPGGSLRLSCEASGFPFNSYHMNWIRQSPGKGLEWVSYITGGSSFSNYADSVKGRFTISRDNAKNSLYLQMNSLRAEDTAVYYCARTTLDCTSTSCHYRFDYWGQGTLVTVSS VL: QSVLTQPPSVSGAPGQRITISCNGSNSNIGAGYDVHWYQQLPGKAPKLLIYSNNNRPSGVPDRFSGSKSGTSASLAITGLQGEDEADYYCQSHDTRLSGNVVFGGGTKLTVL', 'Neutralization IC50 (RSV subtype A)', '0.0315 mg/L'),
  ('ADI-41591 (antibody, V domains shown, also called Ab 865; Antibody Number 865) VH: QVTLKESGGGLVKPGGSLRLSCAASGFTFSDYYMSWIRQAPGKGLEWVSYISSSSSYTNYADSVKGRFTISRDNAKNSLYLQMNSLRAEDTAVYYCAREAVAAAGTDYFDYWGQGTLVTVSS VL: QSVLTQPPSVSGAPGQRVTISCTGSSSNIGAGYDVHWYQQPPRTAPKLLIYGNSNRPSGVPDRFSGSKSGTSASLAITGLQAEDEADYYCQSYDSSLSGYVFGTGTKLTVL', 'Neutralization IC50 (RSV subtype A)', '> 25 mg/L');
